viability at 72 h, 25 µM values for the molecules below.
# assay.method.text: MTT cytotoxicity assay
# Assay type: cell-based, human
# condition.label: human, HEK293T cells, OD450, cytotoxicity (Fig 2a), replicates
Residues, ends and D or L forms follow the SMILES beside them.

>  <molecule>
CC[C@H](C)[C@H](NC(=O)[C@H](CCCNC(=N)N)NC(=O)[C@H](CCCNC(=N)N)NC(=O)[C@H](CC(C)C)NC(=O)[C@H](Cc1ccccc1)NC(=O)[C@@H](N)CCCNC(=N)N)C(=O)N[C@@H](Cc1ccccc1)C(=O)N[C@@H](CCCCN)C(=O)N[C@@H](Cc1ccccc1)C(=O)N[C@@H](Cc1ccccc1)C(=O)N[C@@H](Cc1ccccc1)C(N)=O [HT5] (H-RFLRRIFKFFF-NH2)

>  <unit.spec>
%

>  <viability at 72 h, 25 µM>
10.4

$$$$
>  <molecule>
CC[C@H](C)[C@H](NC(=O)[C@H](CCCNC(=N)N)NC(=O)[C@H](CCCNC(=N)N)NC(=O)[C@H](CC(C)C)NC(=O)[C@@H](N)Cc1ccccc1)C(=O)N[C@@H](Cc1ccccc1)C(=O)N[C@@H](Cc1ccccc1)C(=O)N[C@@H](Cc1ccccc1)C(=O)N[C@@H](Cc1ccccc1)C(N)=O [HT1] (H-FLRRIFFFF-NH2)

>  <unit.spec>
%

>  <viability at 72 h, 25 µM>
1.3

$$$$

###

# assay.method.text: MTT cytotoxicity assay
# Assay type: cell-based, human
# condition.label: human, HEK293T cells, OD450, cytotoxicity (Fig 2a), replicates
Residues, ends and D or L forms follow the SMILES beside them.

>  <compound>
CC[C@H](C)[C@H](NC(=O)[C@H](CCCNC(=N)N)NC(=O)[C@H](CCCNC(=N)N)NC(=O)[C@H](CC(C)C)NC(=O)[C@H](Cc1ccccc1)NC(=O)[C@H](CCCNC(=N)N)NC(=O)[C@@H](N)CCCNC(=N)N)C(=O)N[C@@H](Cc1ccccc1)C(=O)N[C@@H](Cc1ccccc1)C(=O)N[C@@H](Cc1ccccc1)C(=O)N[C@@H](Cc1ccccc1)C(N)=O [HT3] (H-RRFLRRIFFFF-NH2; N-terminus assumed)

>  <viability at 72 h, 50 µM, %>
59.2

$$$$
>  <compound>
CC[C@H](C)[C@H](NC(=O)[C@H](CCCNC(=N)N)NC(=O)[C@H](CCCNC(=N)N)NC(=O)[C@H](CC(C)C)NC(=O)[C@H](Cc1ccccc1)NC(=O)[C@@H](N)CCCNC(=N)N)C(=O)N[C@@H](Cc1ccccc1)C(=O)N[C@@H](Cc1ccccc1)C(=O)N[C@@H](Cc1ccccc1)C(=O)N[C@@H](Cc1ccccc1)C(N)=O [HT2] (H-RFLRRIFFFF-NH2)

>  <viability at 72 h, 50 µM, %>
98.4

$$$$
>  <compound>
CC[C@H](C)[C@H](NC(=O)[C@H](CCCNC(=N)N)NC(=O)[C@H](CCCNC(=N)N)NC(=O)[C@H](CC(C)C)NC(=O)[C@H](Cc1ccccc1)NC(=O)[C@H](Cc1ccccc1)NC(=O)[C@H](Cc1ccccc1)NC(=O)[C@@H](N)Cc1ccccc1)C(=O)N[C@@H](Cc1ccccc1)C(N)=O [F-SHf(R^5)] (H-FFFFLRRIF-NH2; N-terminus assumed)

>  <viability at 72 h, 50 µM, %>
16.4

$$$$

###

# assay.method.text: MTT cytotoxicity assay
# Assay type: cell-based, human
# condition.label: human, HEK293T cells, OD450, cytotoxicity (Fig 2a), replicates
Non-standard residues stand in square brackets, D forms with d. Residues, ends and D or L forms follow the SMILES beside them.
observed.property: viability at 72 h, 100 µM (%)

>  <compound>
CC[C@H](C)[C@H](NC(=O)[C@H](CCCNC(=N)N)NC(=O)[C@H](CCCNC(=N)N)NC(=O)[C@H](CC(C)C)NC(=O)[C@H](Cc1ccccc1)NC(=O)[C@H](CCCNC(=N)N)NC(=O)[C@@H](N)CCCNC(=N)N)C(=O)N[C@@H](Cc1ccccc1)C(=O)N[C@@H](Cc1ccccc1)C(=O)N[C@@H](Cc1ccccc1)C(=O)N[C@@H](Cc1ccccc1)C(N)=O [HT3] (H-RRFLRRIFFFF-NH2; N-terminus assumed)

>  <observed.property>
viability at 72 h, 100 µM

>  <numeric.value>
24.2

$$$$
>  <compound>
CC[C@H](C)[C@H](NC(=O)[C@H](CCCNC(=N)N)NC(=O)[C@H](CCCNC(=N)N)NC(=O)[C@H](CC(C)C)NC(=O)[C@H](Cc1ccccc1)NC(=O)[C@H](Cc1ccccc1)NC(=O)[C@H](Cc1ccccc1)NC(=O)[C@@H](N)Cc1ccccc1)C(=O)N[C@@H](Cc1ccccc1)C(=O)N[C@@H](CCCNC(=N)N)C(=O)N[C@@H](CCCNC(=N)N)C(N)=O [F-SHf(R^5)-RR] (H-FFFFLRRIFRR-NH2; N-terminus assumed)

>  <observed.property>
viability at 72 h, 100 µM

>  <numeric.value>
1.75

$$$$
>  <compound>
CC[C@@H](C)[C@@H](NC(=O)[C@@H](Cc1ccccc1)NC(=O)[C@@H](Cc1ccccc1)NC(=O)[C@@H](Cc1ccccc1)NC(=O)[C@H](N)Cc1ccccc1)C(=O)N[C@H](CCCNC(=N)N)C(=O)N[C@H](CCCNC(=N)N)C(=O)N[C@H](CC(C)C)C(=O)N[C@H](Cc1ccccc1)C(=O)N[C@H](CCCNC(=N)N)C(N)=O [RI-HT2] (H-[dF][dF][dF][dF][dI][dR][dR][dL][dF][dR]-NH2; N-terminus assumed)

>  <observed.property>
viability at 72 h, 100 µM

>  <numeric.value>
75.8

$$$$
>  <compound>
CC[C@H](C)[C@H](NC(=O)[C@H](CCCNC(=N)N)NC(=O)[C@H](CCCNC(=N)N)NC(=O)[C@H](CC(C)C)NC(=O)[C@H](Cc1ccccc1)NC(=O)[C@H](Cc1ccccc1)NC(=O)[C@H](Cc1ccccc1)NC(=O)[C@@H](N)Cc1ccccc1)C(=O)N[C@@H](Cc1ccccc1)C(=O)N[C@@H](CCCNC(=N)N)C(N)=O [F-SHf(R^5)-R] (H-FFFFLRRIFR-NH2; N-terminus assumed)

>  <observed.property>
viability at 72 h, 100 µM

>  <numeric.value>
1.58

$$$$
>  <compound>
CC[C@H](C)[C@H](NC(=O)[C@H](CCCNC(=N)N)NC(=O)[C@H](CCCNC(=N)N)NC(=O)[C@H](CC(C)C)NC(=O)[C@H](Cc1ccccc1)NC(=O)[C@H](Cc1ccccc1)NC(=O)[C@H](Cc1ccccc1)NC(=O)[C@@H](N)Cc1ccccc1)C(=O)N[C@@H](Cc1ccccc1)C(N)=O [F-SHf(R^5)] (H-FFFFLRRIF-NH2; N-terminus assumed)

>  <observed.property>
viability at 72 h, 100 µM

>  <numeric.value>
17.1

$$$$
>  <compound>
CC[C@H](C)[C@H](NC(=O)[C@H](CCCNC(=N)N)NC(=O)[C@H](CCCNC(=N)N)NC(=O)[C@H](CC(C)C)NC(=O)[C@H](Cc1ccccc1)NC(=O)[C@@H](N)CCCNC(=N)N)C(=O)N[C@@H](Cc1ccccc1)C(=O)N[C@@H](Cc1ccccc1)C(=O)N[C@@H](Cc1ccccc1)C(=O)N[C@@H](Cc1ccccc1)C(N)=O [HT2] (H-RFLRRIFFFF-NH2)

>  <observed.property>
viability at 72 h, 100 µM

>  <numeric.value>
94.3

$$$$

###

# Test system: A. baumannii 1318
# Type: cell-based, Acinetobacter baumannii
# Source text: Bacteria were cultivated in Luria-Bertani (LB) broth.
Residues, ends and D or L forms follow the SMILES beside them.
// MIC Gram- A. b 1318 lookup, one value per entry

>  <molecule>
CC[C@H](C)[C@H](NC(=O)[C@H](CCCNC(=N)N)NC(=O)[C@H](CO)NC(=O)[C@H](CC(C)C)NC(=O)[C@H](Cc1ccccc1)NC(=O)[C@H](Cc1ccccc1)NC(=O)[C@@H](N)Cc1ccc(O)cc1)C(=O)N[C@@H](Cc1ccccc1)C(N)=O [SHf(Y^1)] (H-YFFLSRIF-NH2; N-terminus assumed)

>  <MIC Gram- A. b 1318>
> 100 µM

$$$$
>  <molecule>
CC[C@H](C)[C@H](NC(=O)[C@H](CCCNC(=N)N)NC(=O)[C@H](CO)NC(=O)[C@H](CC(C)C)NC(=O)[C@H](Cc1ccccc1)NC(=O)[C@@H](N)Cc1ccccc1)C(=O)N[C@@H](Cc1ccccc1)C(N)=O [SHfΔ1F] (H-FFLSRIF-NH2)

>  <MIC Gram- A. b 1318>
> 100 µM

$$$$
>  <molecule>
CC[C@H](C)[C@H](NC(=O)[C@H](CCCNC(=N)N)NC(=O)[C@H](CCCNC(=N)N)NC(=O)[C@H](CC(C)C)NC(=O)[C@H](Cc1ccccc1)NC(=O)[C@H](Cc1ccccc1)NC(=O)[C@H](Cc1ccccc1)NC(=O)[C@@H](N)Cc1ccc(O)cc1)C(=O)N[C@@H](Cc1ccccc1)C(N)=O [Y-SHf(R^5)] (H-YFFFLRRIF-NH2; N-terminus assumed)

>  <MIC Gram- A. b 1318>
> 100 µM

$$$$
